- Test system: MCF7
- assayNotes: NCI tumour cell line growth inhibition, 48 h
Calls of active or inactive are those of the source. Cut-off read from the data, not from the text of the source: active = GI50 up to about 1.1 µM and inactive = higher.
Outcomes you can answer with include only these: 1 (yes) (active), 0 (no) (inactive)

Short answer needed: outcome of this test for Cc1c(C)c(C)c(Cn2[nH]c(=O)n(C)c2=O)c(C)c1C ?
0 (no)

Answer briefly: the call reported for Cc1c2ccccc2c(C)n2c1nc1cc(Cl)c(Cl)cc12 in this assay.
0 (no)

Name the outcome recorded for O=C(O)C1=NN(c2ccc(S(=O)(=O)O)cc2)C2(C1)C(Cl)C(=O)N2c1nc2ccccc2s1 (stereo not drawn) in the assay.
0 (no)

Just curious, what result did COc1ccc2c(c1)CN1C(=N2)CSC1c1cc([N+](=O)[O-])ccc1Cl (stereo not drawn) get here?
0 (no)

Please share the test call associated with N#C/C(=C\Nc1ccccn1)C(=O)c1ccco1 .
0 (no)

Test call, this molecule: O=C1OCC2(CO1)CC1C=CC2C1 (stereo not drawn)
0 (no)

Just curious, what result did C=CCCC1CCCCC/C1=N\N(C)C (stereo not drawn) get here?
0 (no)

Tell me the assay call for S=c1nc(Nc2ccccc2)c2c3c(sc2[nH]1)CCCC3 please.
0 (no)

Which outcome did this test record for the molecule Nc1ncnc2c1ccn2C/C=C\CO ?
0 (no)

Query: recorded result category for O=C(Cn1c2ccc(Br)cc2c2nc3ccccc3nc21)N/N=C/c1ccccc1 in this test
0 (no)

Give the logged outcome of this assay for the following molecule: CCOC(=O)c1c(-c2ccc(Cl)cc2)c(C#N)c(=S)n(C2OC(COC(C)=O)C(OC(C)=O)C(OC(C)=O)C2OC(C)=O)c1-c1ccccc1 (stereo not drawn)
0 (no)

Please let me know the test result on file for CC1C(c2ccccc2O)c2cc3c(cc2OC1N1CCCC1)OCO3 (stereo not drawn) .
0 (no)

Dear all, I need the recorded test outcome for COc1c(OC)c(O)c2c(=O)c(OC)c(-c3ccc4c(c3)OCO4)oc2c1O , thank you.
0 (no)

Field: outcome | Entry: CC1CCCc2c(C#N)c(N)nc(-c3ccc(Cl)cc3)c21 (stereo not drawn)
0 (no)

Check the results log: what was the call for Cc1ccc(Cc2cc(N3CCN(c4cccc(Cl)c4)CC3)nnc2C)cc1 ?
0 (no)

Which result was noted for this molecule in the test: Cc1ccc(S(=O)(=O)N2CCCCN(S(=O)(=O)c3ccc(C)cc3)Cc3ccccc3OCCOCCOc3c4cccc3Cc3cccc5c3OCCOCCOc3ccccc3CN(S(=O)(=O)c3ccc(C)cc3)CCCN(S(=O)(=O)c3ccc(C)cc3)Cc3ccccc3OCCOCCOc3c(cccc3C4)Cc3cccc(c3OCCOCCOc3ccccc3C2)C5)cc1
0 (no)

# fetch the recorded call for COC1C(O)CC(OC2CC(Oc3cc4cc5c(c(O)c4c(O)c3C)C(=O)[C@@H](OC3CC(OC4CC(OC6CC(C)(O)C(OC(C)=O)C(C)O6)C(O)C(C)O4)C(O)C(C)O3)[C@H]([C@H](OC)C(=O)[C@@H](O)[C@@H](C)O)C5)OC(C)C2OC(C)=O)OC1C (stereo partly drawn) here
1 (yes)

Given COC(=O)CCNC(=O)OCc1ccccc1 , state the outcome it received in this test.
0 (no)

Lab log entry: COc1cc([C@@H]2c3cc4c(c(O[C@@H]5O[C@H]6CO[C@@H](C)O[C@H]6[C@H](O)[C@@H]5O)c3C[C@H]3COC(=O)[C@@H]32)OCO4)cc(OC)c1O — outcome as called in the assay?
0 (no)

Give the logged outcome of this assay for the following molecule: CN1CCN(CCCBr)CC1
0 (no)

Given COC(=O)C1=C(C)NC(C)=C(C(=O)OC)C1c1ccc(N=O)cc1 , state the outcome it received in this test.
0 (no)

Short answer needed: outcome of this test for CCN(CC)CCOc1ccc(N2C(=O)c3cc(OC)c(OC)cc3C2=O)cc1 ?
0 (no)

Recorded test outcome, item CC(C)C1CC[C@H](C)C[C@@H]1OC(=O)C(C(=O)O[C@H]1C[C@@H](C)CCC1C(C)C)C(O)[C@@H]1OC(C)(C)O[C@H]1C1COC(C)(C)O1 (stereo partly drawn)
0 (no)
